In this section we review reported Kd values for a set of binders.
Biological target: 重组人HER2蛋白的胞外区 (rHER2-ECD) (human) (UniProt P04626)
Assay: SPR (BIACORE3000), rHER2-ECD coupled to CM5 chip, antibody in flow, 25 °C
Give a bare numeral; the unit nM is implied.

Lookup result for hu14C5B-6 (antibody, V domains shown, not shown: a dimerising Fc or GST) VH: EVQLVESGGGLVQPGGSLRLSCAASGFTFSLYNINWVKQAPGKGLEWIGNLDPYYGGSNYNPKFKDKATLSRDNSKNTAYLQMNSLRAEDTAVYYCTRILWSRDYYTMDYWGQGTLVTVSS VL: DIQVTQSPSSLSASVGDRVTITCRTSQDISNYLHWYQQKPGKAPKLLIYSTSTLHSGVPSRFSGSGSGTDFTLTISSLQPEDFATYFCQQSYTLPYTFGQGTKVEIKR ; measured Kd: 4.62

Per the record, hu14C5B-2 (antibody, V domains shown, not shown: a dimerising Fc or GST) VH: EVQLVESGGGLVQPGGSLRLSCAASGFTFSLYNINWVKQAPGKGLEWIGNLDPYYGGSNYNPKFKDKATLSRDNSKNTAYLQMNSLRAEDTAVYYCTRILWSRDYYTMDYWGQGTLVTVSS VL: DIQVTQSPSSLSASVGDRVTITCRTSQDISNYLHWYQQKPGKAPKLLIYSTSTAHSGVPSRFSGSGSGTDFTLTISSLQPEDFATYFCQQSYTLLYTFGQGTKVEIKR has Kd of 31.5

// hu14C5B-5 (antibody, human IgG1, kappa, V domains shown) VH: EVQLVESGGGLVQPGGSLRLSCAASGFTFSAYNINWVKQAPGKGLEWIGNLDPYYGGSNYNPKFKDKATLSRDNSKNTAYLQMNSLRAEDTAVYYCTRILWSRDYYTMDYWGQGTLVTVSS VL: DIQVTQSPSSLSASVGDRVTITCRTSQDISNYLHWYQQKPGKAPKLLIYSTSTLHSGVPSRFSGSGSGTDFTLTISSLQPEDFATYFCQQSYTLPYTFGQGTKVEIKR : Kd value = 0.186
